Attribute: IC50
Biological target: αvβ3, αvβ5, and α5β1 integrins on U87MG cells (human) (UniProt P06756)
Assay: competition binding on U87MG cells, flow cytometry; competitor 0.25 nM Alexa488-labeled EETI 2.5F; 4 °C, 10 h
Starred links: 1 amine or outer side, 2 acyl side, 3 side chain; linkers in the order of their positions; H or OH if unused. Non-standard residues stand in square brackets, D forms with d. No end group written: not given here. AO = 2-amino-3-(2-(aminooxy)acetamido)propanoic acid, O=C(CON[*:3])NC[C@H](N[*:1])C(=O)[*:2]
Give the number; nM is assumed, so skip it.

Please review the entries below; each comes with its answer.
GCPRPRGDNPPLTCKQDSDCLAGCVCGPNGFCG (designed binder) [EETI 2.5F] ... 1.64
GCPRPRGDNPPLTC[AO]QDSDCLAGCVCGPNGFCG (designed binder, disulfide (positions not given here)) [EETI 2.5F_AO] ... 1.57

Please examine the following record next.
Query :: // lookup IC50 for GCPRPRGDNPPLTC[AO]QDSDCLAGCVCGPNGFCG (designed binder, not fully specified (residue 15, bridges); ends and bridges not checked; also: homodimer: two copies joined by oxime-bonded dialdehyde linker at X15) [EETI 2.5F Dimer]
Result :: 0.036
